# TGT: T1, human immunoglobulin E (hIgE) (human, UniProt P01854-1 1-428)
# T1 construct: also called human IgE; Native IgE (Abcam)
# PROCEDURE SUMMARY: SPR (Biacore), pH 6.0
Think of 300000 M⁻¹ s⁻¹ as a floor: if kon stands on it or above, it is Condition met; beneath it, Condition not met.

q: Please tell me: is the binder OMA VH15 - VL3D28H (antibody, V domains shown, also called OMA VH15 VL3D25H) VH: EVQLVESGGGLVQPGGSLRLSCAVSGYSITSGHRWEWIRQAPGKGLEWVASIHYDGSTNYNPSVKGRITISRDDSKNTFYLQMNSLRAEDTAVYYCARATHYFGHWHFAVWGQGTLVTVSS VL: DIQLTQSPSSLSASVGDRVTITCRASQSVDYHGDSYMNWYQQKPGKAPKLLIEWGSYLRSGVPSRFSGSGSGTDFTLTISSLQPEDFATYYCQQNAEDPYTFGQGTKVEIK at or over 300000 M⁻¹ s⁻¹ in terms of kon?
a: Condition not met

q: For this binder, is measured kon 300000 M⁻¹ s⁻¹ or higher? Oma VH15W100b - VL3D28H (antibody, V domains shown, also called Oma VH15W100b VL3D25H) VH: EVQLVESGGGLVQPGGSLRLSCAVSGYSITSGHRWEWIRQAPGKGLEWVASIHYDGSTNYNPSVKGRITISRDDSKNTFYLQMNSLRAEDTAVYYCARATHYFGHHHFAVWGQGTLVTVSS VL: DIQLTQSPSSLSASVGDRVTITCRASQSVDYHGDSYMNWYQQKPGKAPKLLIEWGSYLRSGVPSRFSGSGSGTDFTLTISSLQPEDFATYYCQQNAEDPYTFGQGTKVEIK
a: Condition not met

q: Check this binder for kon at or above 300000 M⁻¹ s⁻¹: OmaVH15G55H - VL3D28HS31H (antibody, V domains shown) VH: EVQLVESGGGLVQPGGSLRLSCAVSGYSITSGHRWEWIRQAPGKGLEWVASIHYDHSTNYNPSVKGRITISRDDSKNTFYLQMNSLRAEDTAVYYCARATHYFGHWHFAVWGQGTLVTVSS VL: DIQLTQSPSSLSASVGDRVTITCRASQSVDYHGDHYMNWYQQKPGKAPKLLIEWGSYLRSGVPSRFSGSGSGTDFTLTISSLQPEDFATYYCQQNAEDPYTFGQGTKVEIK
a: Condition met

q: hey, is kon for this one >= 300000 M⁻¹ s⁻¹? OmaVH15G55HW100b - VL3S31H (antibody, V domains shown) VH: EVQLVESGGGLVQPGGSLRLSCAVSGYSITSGHRWEWIRQAPGKGLEWVASIHYDHSTNYNPSVKGRITISRDDSKNTFYLQMNSLRAEDTAVYYCARATHYFGHHHFAVWGQGTLVTVSS VL: DIQLTQSPSSLSASVGDRVTITCRASQSVDYDGDHYMNWYQQKPGKAPKLLIEWGSYLRSGVPSRFSGSGSGTDFTLTISSLQPEDFATYYCQQNAEDPYTFGQGTKVEIK
a: Condition not met
